TARGET_DESC: T1, MC1 receptor (UniProt Q01726 1-317, limits assumed)
T1 construct: whole, on cells; also called melanocortin receptor subtype 1; melanocortin receptor 1
ASSAY_METHOD_TEXT: 125I-NDP-α-MSH displacement, BHK-MC1 membranes (Assay IV);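 note: membrane incubations stopped by filtration, retained radioactivity counted, Ki fitted by nonlinear regression to binding curves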
Positions of bridges follow the written chain, without caps; N, C: chain ends. Non-standard residues stand in square brackets, D forms with d. Groups on a side chain read outwards from the residue. Primed or numbered codes have the meaning given here. *: point of attachment. X2 = (2-(2-(16-(tetrazol-5-yl)hexadecanoylamino)ethoxy)ethoxy)acetyl, O=C(CCCCCCCCCCCCCCCc1nn[nH]n1)NCCOCCOCC(=O)*; X6 = (2-(2-(17-carboxyheptadecanoylamino)ethoxy)ethoxy)acetyl, O=C(O)CCCCCCCCCCCCCCCCC(=O)NCCOCCOCC(=O)*; biscarboxymethyl = Lys(biscarboxymethyl) = Nepsilon-bis(carboxymethyl)-L-lysine; bis(carboxymethyl) = Lys(biscarboxymethyl) = N6-bis(carboxymethyl)-L-lysine; Palmitoyl(16-(5-tetrazolyl)) = O=C(CCCCCCCCCCCCCCCc1nnn[nH]1)*; biscarboxymethyl(3) = Nepsilon-bis(carboxymethyl) on Lys; C18 diacid = O=C(O)CCCCCCCCCCCCCCCCC(=O)*; C16 diacid = O=C(O)CCCCCCCCCCCCCCC(=O)*; Hyp = O=C(O)[C@@H]1C[C@@H](O)CN1; hCys = N[C@@H](CCS)C(=O)O; Orn = NCCC[C@H](N)C(=O)O; AEEA = NCCOCCOCC(=O)O
Quick reference: pKi of the listed items.
Would you please state pKi, meaning minus log10 of the concentration in mol/L, as a bare number?

# BINDER, RECORDED_VALUE
records = [
    ("Ac-EH[dF]RW[Orn]PPRDK(biscarboxymethyl)K(X6)-NH2 (lactam 1-6)", 5.33),
    ("Ac-EH[dF]RW[Orn][dP][dP]RDK(biscarboxymethyl(3))K([AEEA-Palmitoyl(16-(5-tetrazolyl))])-NH2 (lactam 1-6)", 5.05),
    ("Ac-EH[dF]RW[Orn][Hyp][Hyp]RDK(biscarboxymethyl)K(X2)-NH2 (lactam 1-6)", 5.14),
]

Query :: I have this binder here, Ac-[hCys]H[dF]RWCSPHEK(bis(carboxymethyl))K([AEEA-C18 diacid])-NH2 (disulfide 1-6) , and I need its recorded pKi.
Result :: 6.35

Query :: Given the entry Ac-[hCys]H[dF]RWCSPKEK(bis(carboxymethyl))K([AEEA-C16 diacid])-NH2 (disulfide 1-6) , report its measured pKi.
Result :: 6.77
